# Test system: HeLa cells
# ASSAY EXPLANATION: Cytotoxicity assay
# Type: cell-based, human
# ASSAY CONTEXT: Homo sapiens, HeLa, 48 h, read-out: toxicity in HeLa cells, pIC50 (mean ± SE) (converted)
QUANTITY MEASURED: IC50 (µM)
Write the answer as a number in µM, unit excluded.

**Query** Please tell me: IC50 of Cn1c([N+](=O)[O-])cnc1/C=C/c1cccc(I)c1 , system HeLa cells?
**Result** 31.6

**Query** Next: Cc1cc(C)c(/C=C/c2ncc([N+](=O)[O-])n2C)c(C)c1
**Result** 11

**Query** Next: Cn1c([N+](=O)[O-])cnc1/C=C/c1ccco1
**Result** 93.3

**Query** Next: CCOC(OCC)c1ccc(/C=C/c2ncc([N+](=O)[O-])n2C)cc1
**Result** 97.7

**Query** Next: Cn1c([N+](=O)[O-])cnc1CCc1ccc(Br)cc1
**Result** 97.7

* * *

Hi there, I'd appreciate the recorded E1/2 more positive than Mz for every entry that follows.
# ASSAY EXPLANATION: Cyclic voltammetry in DMSO
# Type: physicochemical
# ASSAY CONTEXT: in DMSO, relative to Mz

**Query** Please give the measured E1/2 more positive than Mz for this compound: Cn1c([N+](=O)[O-])cnc1/C=C/c1ccc(Cl)cc1Cl
**Result** ~ 90 mV

**Query** Next: Cc1cc(C)c(/C=C/c2ncc([N+](=O)[O-])n2C)c(C)c1
**Result** 30–50 mV

**Query** Next: Cn1c([N+](=O)[O-])cnc1/C=C/c1ccco1
**Result** 50–65 mV

**Query** Next: Cn1c([N+](=O)[O-])cnc1/C=C/c1ccccc1
**Result** 30–50 mV

**Query** Next: Cn1ccnc1/C=C/c1ncc([N+](=O)[O-])n1C
**Result** 50–65 mV

* * *

# System: HeLa cells
# ASSAY EXPLANATION: Cytotoxicity assay
# Format: cell-based, human
# ASSAY CONTEXT: Homo sapiens, HeLa, 48 h, read-out: toxicity in HeLa cells, pIC50 (mean ± SE) (converted)
QUANTITY MEASURED: IC50
Be sure to follow the number with its unit.

**Query** Please give the measured IC50 for this molecule: Cc1ccccc1/C=C/c1ncc([N+](=O)[O-])n1C
**Result** 93.3 µM

**Query** Next: Cn1c([N+](=O)[O-])cnc1/C=C/c1ccc2ccccc2c1
**Result** 97.7 µM

**Query** Next: CC(=O)OC(c1ccc(Br)cc1)C(OC(C)=O)c1ncc([N+](=O)[O-])n1C (stereo not drawn)
**Result** 97.7 µM

* * *

Hi there, I'd appreciate the recorded Ep in water (peak potential), mean ± SE for every entry that follows.
# ASSAY EXPLANATION: Cyclic voltammetry in water pH 7.0
# Assay type: physicochemical
# ASSAY CONTEXT: pH 7.0 phosphate buffer, 0.1 M KCl, 25 °C
Write the answer as a number in V vs SCE, unit excluded.

**Query** Please give the measured Ep in water (peak potential), mean ± SE for this compound: Cn1c([N+](=O)[O-])cnc1/C=C/c1ccc(Br)cc1
**Result** −0.605

**Query** Next: COc1ccc(/C=C/c2ncc([N+](=O)[O-])n2C)c(OC)c1OC
**Result** −0.757

**Query** Next: Cc1cccc(/C=C/c2ncc([N+](=O)[O-])n2C)c1
**Result** −0.635

**Query** Next: Cn1c([N+](=O)[O-])cnc1/C=C/c1ccc(Cl)cc1
**Result** −0.584

**Query** Next: Cn1ccnc1/C=C/c1ncc([N+](=O)[O-])n1C
**Result** −0.594
